Target Or System: T1, HLA-A*01:01_… (HLA-PEPTIDE target G2), recombinant biotinylated complex (human, enzymatically biotinylated (BirA))
T1 construct: also called G2-pHLA
Assay Info: phage panning, scFv ELISA;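 also: scFv binders from three to four bead panning rounds, tested as PPEs by ELISA on streptavidin plates carrying peptide-HLA complex (2 µg/ml), detected via anti-V5 and HRP anti-mouse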
Parameter Measured: binding result

• G2(1C06) scFv (scFv, V domains shown) VH: QVQLVQSGAEVKKPGASVKVSCKASGYTFTDYQMFWVRQAPGQGLEWMGWINPNSGGTNYAQKFQGRVTMTRDTSTSTVYMELSSLRSEDTAVYYCAKGGGGYGMDVWGQGTTVTVSS VL: DIQMTQSPSSLSASVGDRVTITCRASQGISNYLAWYQQKPGKAPKLLIYAASSLQSGVPSRFSGSGSGTDFTLTISSLQPEDFATYYCQQSYSDQWTFGQGTKVEIK = binds
• G2(2H11) scFv (scFv, V domains shown) VH: QVQLVQSGAEVKKPGASVKVSCKASGYTFSDYYVHWVRQAPGQGLEWMGWINPNSGGTNYAQKFQGRVTMTRDTSTSTVYMELSSLRSEDTAVYYCARGEWFDPWGQGTLVTVSS VL: DIQMTQSPSSLSASVGDRVTITCRASQSISSWLAWYQQKPGKAPKLLIYAASTLQSGVPSRFSGSGSGTDFTLTISSLQPEDFATYYCQQSYSTPFTFGPGTKVDIK = binds
• G2(1G07) scFv (scFv, V domains shown) VH: QVQLVQSGAEVKKPGASVKVSCKASGGTFSNYAINWVRQAPGQGLEWMGWISPYSGGTNYAQKFQGRVTMTRDTSTSTVYMELSSLRSEDTAVYYCARDSGSYFDYWGQGTLVTVSS VL: DIQMTQSPSSLSASVGDRVTITCQASQDISNYLNWYQQKPGKAPKLLIYAASTLQSGVPSRFSGSGSGTDFTLTISSLQPEDFATYYCQQTYAIPLTFGGGTKVEIK = binds
